Tested on: LXRb homodimer (NR concentration 270 nM)
Assay explanation: PBM binding z-score (relative to random genomic background probes); higher = stronger binding; sequences stand for … in GC…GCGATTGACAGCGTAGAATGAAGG
Assay metric: PBM binding z-score

Sequence | PBM binding z-score
TTACCAAGGTGGAAGGTCGTTGATGCACGCCTTG | -0.809
TCCTGTAGATCAAGCAGGTTAAGAAAGCCTGAGT | -1.12
GGAACGAGGGCAGAGTTGATAGCATCTGTCGACG | -0.788
CGTCAAAGTTCAAGGTAACTTAACAGAAAGCAGC | 0.919
TAGCCTAGGTCATGCGGGCCCGTATAGTGTCGGC | 0.214

Could you now look at the following sequence, please?
Quick check: PBM binding z-score of `CGAACGAGGGCATAAGTTGATAGCAAATGCCGAT` ?
-0.74
